Each record here notes measured cell count.
assay: NTR1-driven beta-arrestin-GFP spot formation – imaging, U2OS cells, high content, primary screen (AID 493036); conditions: agonist mode, measured here: cell count, cytotoxicity flag, at 20 µM
Screen size: about 330,000 compounds; about 560 (0.17%) were called active. For the sample, actives were picked, then their nearest neighbours and some compounds at random.
property: cell count

INSERT INTO results (molecule, result) VALUES
  ('O=C(CCNS(=O)(=O)c1cccs1)N1CCN(c2ccc(F)cc2)CC1', '42 cells'),
  ('C=CCOc1ccc(/C=C2/C(=O)ON=C2C)cc1OCC', '89 cells'),
  ('Cc1cc(N(C)C)cc(C)[n+]1[O-]', '38 cells'),
  ('O=C1N(Cc2ccc3c(c2)OCO3)c2ccccc2C1(O)c1c[nH]c2ccccc12 (stereo unspecified)', '56 cells'),
  ('COc1cc(/C=C2/C(=O)ON=C2C)ccc1OCc1cccc(F)c1', '41 cells'),
  ('C#CCCOC(=O)N1C2=NC(C(=O)OC)=C(C(=O)OC)[C@@H]3N(C)c4ccc(OC)cc4[C@]23C[C@H]1C(=O)OC', '67 cells');

----------
experiment: NTR1-driven beta-arrestin-GFP spot formation – imaging, U2OS cells, high content, primary screen (AID 493036); conditions: agonist mode, measured here: cell count, cytotoxicity flag, at 20 µM
The whole screen tested about 330,000 compounds, of which about 560 (0.17%) were called active. This excerpt belongs to a sample that is enriched for actives.
Mark yes for reported cell count of 60 cells or greater; mark no for anything smaller.

INSERT INTO results (compoundstring, qualitativelabel) VALUES
  ('Cc1ccc(S(=O)(=O)NNC(=O)/C=C/c2cccc(F)c2)cc1', 'yes'),
  ('Oc1ccc(-c2nnc(Nc3ccccc3)c3ccccc23)cc1', 'yes'),
  ('CCCCN1C(=O)c2ccc(C(=O)Nc3ccc(S(=O)(=O)N(C)C)cc3)cc2C1=O', 'yes'),
  ('CN1/C(=C\C(=O)c2oc3ccccc3c2N)C(C)(C)c2ccccc21', 'no');

----------
biological target: Neurotensin receptor type 1 (Homo sapiens); assay: NTR1-driven beta-arrestin-GFP spot formation – imaging, U2OS cells, high content, primary screen (AID 493036); conditions: agonist mode, at 20 µM
In all, about 330,000 compounds went through this assay and about 560 (0.17%) were called active.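 Rule for the calls: active = activation at or above 40% of the spot to cytoplasm intensity ratio, with at least 20 cells analyzed; inconclusive = wells under 20 cells, flagged as cytotoxic or low count; inactive = the rest.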 For the sample, actives were picked, then their nearest neighbours and some compounds at random.
Outcomes: true (1) (active), false (0) (inactive)

INSERT INTO measurements (molecule, measuredon, qualitativelabel) VALUES
  ('COc1ccccc1NC(=O)C1CCN(C(=O)c2ccc(C(C)(C)C)cc2)CC1', 'Neurotensin receptor type 1 (Homo sapiens)', 'false (0)'),
  ('CC(C)Oc1c(Br)cc(Br)cc1/C=N/NC(N)=S', 'Neurotensin receptor type 1 (Homo sapiens)', 'true (1)'),
  ('CCCC(C(=O)NC1CCCC1)N(C(=O)Cn1nnc(-c2ccc(C)o2)n1)c1cccc(O)c1 (configuration not stated)', 'Neurotensin receptor type 1 (Homo sapiens)', 'false (0)'),
  ('COc1cccc(/C=N/Nc2cc(C)nc(-c3ccccc3O)n2)c1O', 'Neurotensin receptor type 1 (Homo sapiens)', 'true (1)'),
  ('COCC(C)OC(=O)c1c(N)n(CCCN2CCOCC2)c2nc3ccccc3nc12 (configuration not stated)', 'Neurotensin receptor type 1 (Homo sapiens)', 'false (0)'),
  ('Cc1nn(C)c(Oc2ccccc2)c1CCNS(=O)(=O)c1ccc(F)cc1', 'Neurotensin receptor type 1 (Homo sapiens)', 'false (0)'),
  ('CCOC(=O)/C(=N\Nc1ccccc1[N+](=O)[O-])c1csc(Nc2ccccc2)n1', 'Neurotensin receptor type 1 (Homo sapiens)', 'false (0)'),
  ('CC1=CCC2C(=O)N(c3cccc(C(=O)NC(C)c4ccccc4)c3)C(=O)C2C1 (configuration not stated)', 'Neurotensin receptor type 1 (Homo sapiens)', 'false (0)'),
  ('COc1ccc(CNC(=O)CNC(=O)c2sc3ccccc3c2Cl)cc1OC', 'Neurotensin receptor type 1 (Homo sapiens)', 'false (0)'),
  ('CCN(CC(=O)Nc1ccc(OC)cc1)C(=O)c1ccc(=O)n(Cc2ccccc2)n1', 'Neurotensin receptor type 1 (Homo sapiens)', 'false (0)'),
  ('N#Cc1ncc(C(F)(F)F)cc1Oc1cccnc1', 'Neurotensin receptor type 1 (Homo sapiens)', 'false (0)'),
  ('O=C(OCC(=O)N1CCCC1=O)c1cc(S(=O)(=O)N2CCOCC2)ccc1Cl', 'Neurotensin receptor type 1 (Homo sapiens)', 'false (0)'),
  ('CCn1c(Cc2cccs2)nnc1SCC(=O)c1ccc(C)cc1', 'Neurotensin receptor type 1 (Homo sapiens)', 'false (0)'),
  ('COc1ccccc1-n1c(SCC(=O)Nc2cccc(C(=O)O)c2)nnc1-c1ccccc1O', 'Neurotensin receptor type 1 (Homo sapiens)', 'false (0)'),
  ('N#CC1(NC(=O)COc2ccc3oc4ccccc4c3c2)CCCCC1', 'Neurotensin receptor type 1 (Homo sapiens)', 'false (0)'),
  ('CCCCCCCCCCCCN1C(=O)CSC1c1cccnc1 (configuration not stated)', 'Neurotensin receptor type 1 (Homo sapiens)', 'false (0)'),
  ('O=C(CCC1CCN(C(=O)c2cccc(Cl)c2F)CC1)Nc1ccccc1', 'Neurotensin receptor type 1 (Homo sapiens)', 'false (0)'),
  ('CCc1ccccc1NC(=O)/C(=C/c1ccccc1)c1ccccc1', 'Neurotensin receptor type 1 (Homo sapiens)', 'false (0)'),
  ('CC(=O)N1C(C)c2ccccc2C(C)(C)CC12CCCCC2 (configuration not stated)', 'Neurotensin receptor type 1 (Homo sapiens)', 'false (0)'),
  ('CCOc1ccccc1NC(=O)Cn1nnc(C(=O)NCc2cccs2)c1N', 'Neurotensin receptor type 1 (Homo sapiens)', 'false (0)'),
  ('O=C(N/N=C/c1c(Cl)[nH]c2ccccc12)c1sc2ccccc2c1Cl', 'Neurotensin receptor type 1 (Homo sapiens)', 'true (1)'),
  ('Nc1c(C(=O)Nc2ccc3c(c2)OCCO3)nnn1Cc1ccccc1', 'Neurotensin receptor type 1 (Homo sapiens)', 'false (0)');
